- Tested on: INS-1E rat beta cells, no cytokines, CellTiter-Glo ATP, 48 h
- experiment: cytokine-free beta-cell viability effect – INS-1E rat cells, ATP luminescence, cherry pick, counter-screen for beta-cell apoptosis protection project, dose response (AID 463229)
Listing of recorded AC50 by entry.

Example results:
>  <compound>
Cc1nn(S(=O)(=O)c2ccc(Cl)cc2)c(C)c1Sc1ccc([N+](=O)[O-])cc1

>  <AC50>
7.69 µM

$$$$
>  <compound>
O=c1[nH]c(=O)n(-c2ccc(F)cc2)c2c1C(C(F)(F)F)(C(F)(F)F)N=C(c1ccc(F)cc1)N2

>  <AC50>
6.05 µM

$$$$
>  <compound>
O=C(NC(Nc1nc2ccc([N+](=O)[O-])cc2s1)(C(F)(F)F)C(F)(F)F)c1cccnc1

>  <AC50>
2.58 µM

$$$$
>  <compound>
COC(=O)c1cc(O)cc(OC)c1Oc1cc(C)cc(O)c1C(=O)O

>  <AC50>
5.37 µM

$$$$

Output AC50 of CCCCC1CCC(C(=O)N(CC(C)C)c2c(N)n(Cc3ccccc3)c(=O)[nH]c2=O)CC1 (stereo unspecified)
6.87 µM

Return AC50 (reported value) for this compound: `COc1ccc(-c2c[n+]3c(n2-c2ccccc2)CCCCC3)cc1`
2.35 µM

Supply reported AC50 belonging to this compound: `O=S1(=O)C=C(Sc2nc3ccccc3s2)c2ccccc21`
5.35 µM

Give a short answer stating reported AC50 for `Oc1ccccc1/C=N/Nc1nccnc1Cl` .
3.97 µM

Quick one: give measured AC50 for `CCCCNc1cc(C)nc(NCc2ccccc2)n1`
8.1 µM

Note down AC50 recorded for `COc1cc(C(=O)N/N=C(\c2ccccc2)c2ccccn2)cc(OC)c1OC`
3.3 µM

Give the measured AC50 for `CCN(CC)CCOC(=O)c1ccc(N/C=C(/C#N)c2nc(-c3ccc4c(c3)OCO4)cs2)cc1`
14.2 µM

###

- System: INS-1E rat beta cells, no cytokines, CellTiter-Glo ATP, 48 h
- experiment: cytokine-free beta-cell viability effect – INS-1E rat cells, ATP luminescence, cherry pick, counter-screen for beta-cell apoptosis protection project, dose response (AID 463229)
assay readout: AC50

>  <molecule>
Cc1ccc(C(=O)Nc2nc(-c3ccccn3)cs2)cc1S(=O)(=O)N1CCOCC1

>  <AC50>
6.47 µM

$$$$
>  <molecule>
O=c1c2ccccc2nc(N/N=C/c2c(O)ccc3ccccc23)n1O

>  <AC50>
3.65 µM

$$$$
>  <molecule>
O=c1[nH]c(=O)n(Cc2ccco2)c2c1C(C(F)(F)F)(C(F)(F)F)N=C(c1ccc(F)cc1)N2

>  <AC50>
1.39 µM

$$$$

Consider the molecule O=C1N/C(=N\N=C\c2cccnc2)SC1Cc1ccc(SC(F)F)cc1 (stereo not given) and give its recorded AC50.
9.68 µM

Identify the reported AC50 for the following entry. `NC1=C(Br)C(=O)c2ccccc2C1=O`
18.2 µM

Supply recorded AC50 for `CCN(CC)CCNc1ncnc2c1sc1nc(N3CCOCC3)c3c(c12)CC(C)(C)SC3` here.
14.2 µM

Give a short answer stating reported AC50 for `Oc1ccc(N=Nc2ccccc2C(F)(F)F)c2cccnc12` .
3.18 µM

###

- Tested on: INS-1E rat beta cells, no cytokines, CellTiter-Glo ATP, 48 h
- experiment: cytokine-free beta-cell viability effect – INS-1E rat cells, ATP luminescence, cherry pick, counter-screen for beta-cell apoptosis protection project, dose response (AID 463229)
assay readout: AC50

Completed entries (count: 4):
>  <compound>
CN(C)S(=O)(=O)c1cccc(N=C2NN=C(c3ccccc3)CS2)c1

>  <AC50>
4.4 µM

$$$$
>  <compound>
CCN(CC)C(=O)c1ccc(S(=O)(=O)N2CCC(c3nc4ccccc4s3)CC2)cc1

>  <AC50>
7.7 µM

$$$$
>  <compound>
O=C(NCc1ccccc1)C1=C[C@@H](c2csc3ccccc23)C[C@@H](OCc2ccc(CO)cc2)O1

>  <AC50>
5.16 µM

$$$$
>  <compound>
Cc1ccc(NC(=O)C2CCN(S(=O)(=O)c3ccc4c(c3)NC(=O)C(C)S4)CC2)cc1Cl (stereo not given)

>  <AC50>
4.64 µM

$$$$

Answer with AC50 of `Cn1ncc2c(O/N=C(\N)c3ccc(C(C)(C)C)cc3)ncnc21` measured for INS-1E rat beta cells, no cytokines, CellTiter-Glo ATP, 48 h.
6.59 µM

Lab note: record AC50 of `C/C(=N\NC(=O)c1ccc(F)cc1)c1ccccn1` tested on INS-1E rat beta cells, no cytokines, CellTiter-Glo ATP, 48 h.
2.35 µM
